The reported numbers originate from paper PMC9692855.

- system: human recombinant AChE (E.C. 3.1.1.7) (Homo sapiens, UniProt P22303)
- Sequence (P22303 32-614): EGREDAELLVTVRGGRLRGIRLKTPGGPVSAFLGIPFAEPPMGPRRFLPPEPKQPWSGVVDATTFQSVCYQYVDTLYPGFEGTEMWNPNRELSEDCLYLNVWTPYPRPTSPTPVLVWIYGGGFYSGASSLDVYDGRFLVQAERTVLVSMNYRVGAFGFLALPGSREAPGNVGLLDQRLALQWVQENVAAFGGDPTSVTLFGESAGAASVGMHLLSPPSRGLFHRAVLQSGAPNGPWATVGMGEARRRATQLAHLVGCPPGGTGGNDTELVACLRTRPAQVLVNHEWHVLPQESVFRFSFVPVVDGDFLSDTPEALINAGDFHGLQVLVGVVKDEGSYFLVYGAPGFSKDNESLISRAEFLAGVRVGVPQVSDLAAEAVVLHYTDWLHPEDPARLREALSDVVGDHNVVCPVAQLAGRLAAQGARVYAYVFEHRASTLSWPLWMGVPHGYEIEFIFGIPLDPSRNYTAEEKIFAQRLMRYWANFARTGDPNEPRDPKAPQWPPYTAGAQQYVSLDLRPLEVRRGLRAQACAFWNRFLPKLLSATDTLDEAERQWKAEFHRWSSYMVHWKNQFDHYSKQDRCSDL
- protocol_text: biochemical
- conditions_used: tested at 100 µM compound concentration; read-out: % Inhibition hAChE ± SEM
endpoint_label: inhibition at 100 µM (%)
Kindly provide the numeric value in % only, without the unit symbol.

Some solved entries appear below for comparison.
compound=COC(=O)c1cc(C(=O)O[C@H]2C[C@H]3CCN(C)[C@H]3[C@@H]3c4cc5c(cc4C(=O)O[C@H]32)OCO5)c(C)nc1C system="human recombinant AChE (E.C. 3.1.1.7) (Homo sapiens, UniProt P22303)" endpoint_label="inhibition at 100 µM" result_number=5.72
compound=Cc1nc(C)c(C(=O)O[C@H]2C[C@H]3CCN(C)[C@H]3[C@@H]3c4cc5c(cc4C(=O)O[C@H]32)OCO5)cc1C(=O)O[C@H]1C[C@H]2CCN(C)[C@H]2[C@@H]2c3cc4c(cc3C(=O)O[C@H]21)OCO4 system="human recombinant AChE (E.C. 3.1.1.7) (Homo sapiens, UniProt P22303)" endpoint_label="inhibition at 100 µM" result_number=9.62
compound="CC(O)CC(=O)O[C@H]1C[C@H]2CCN(C)[C@H]2[C@@H]2c3cc4c(cc3C(=O)O[C@H]21)OCO4 (stereo partly shown)" system="human recombinant AChE (E.C. 3.1.1.7) (Homo sapiens, UniProt P22303)" endpoint_label="inhibition at 100 µM" result_number=40

Answer with the recorded inhibition at 100 µM of Cc1nc(C)c(C(=O)OC2CC3CCN(C)C3C3c4cc5c(cc4C(=O)OC23)OCO5)cc1C(=O)OC1CC2CCN(C)C2c2c1oc(=O)c1cc3c(cc21)OCO3 (stereo not shown) only.
10.1

----------
- system: human recombinant AChE (E.C. 3.1.1.7) (Homo sapiens, UniProt P22303)
- protocol_text: biochemical
- conditions_used: read-out: IC50 hAChE ± SEM
endpoint_label: IC50

// Input: COc1cc2c(cc1O)C(=O)N1CCC3=C[C@H](O)[C@@H](OC(C)=O)[C@@H]2[C@@H]31 . Output its IC50 only.
> 100 µM

----------
- system: human plasma BuChE (E.C. 3.1.1.8) (Homo sapiens, UniProt P06276)
- Sequence (P06276 29-602): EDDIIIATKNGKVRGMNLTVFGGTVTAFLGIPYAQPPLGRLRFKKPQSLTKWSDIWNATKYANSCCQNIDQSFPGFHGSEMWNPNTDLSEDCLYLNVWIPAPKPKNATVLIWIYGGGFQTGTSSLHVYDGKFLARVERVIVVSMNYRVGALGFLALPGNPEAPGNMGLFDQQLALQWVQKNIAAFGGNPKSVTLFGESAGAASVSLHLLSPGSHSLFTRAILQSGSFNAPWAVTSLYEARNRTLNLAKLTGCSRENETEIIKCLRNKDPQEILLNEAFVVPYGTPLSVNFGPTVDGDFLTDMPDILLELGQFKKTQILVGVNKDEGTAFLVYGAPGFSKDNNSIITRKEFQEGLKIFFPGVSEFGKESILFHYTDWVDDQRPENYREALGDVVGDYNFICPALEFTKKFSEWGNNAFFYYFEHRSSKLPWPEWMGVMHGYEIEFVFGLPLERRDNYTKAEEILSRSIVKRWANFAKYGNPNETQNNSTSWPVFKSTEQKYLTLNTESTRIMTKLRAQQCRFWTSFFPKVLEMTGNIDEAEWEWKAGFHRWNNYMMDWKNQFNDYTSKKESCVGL
- protocol_text: biochemical
- conditions_used: tested at 100 µM compound concentration; read-out: % Inhibition hBuChE ± SEM
endpoint_label: inhibition at 100 µM (%)
Please state the figure in %; there is no need to write the unit.

Look over these answered cases.
molecule=Cc1nc(C)c(C(=O)O[C@H]2C[C@H]3CCN(C)[C@H]3[C@@H]3c4cc5c(cc4C(=O)O[C@H]32)OCO5)cc1C(=O)O[C@H]1C[C@H]2CCN(C)[C@H]2[C@@H]2c3cc4c(cc3C(=O)O[C@H]21)OCO4 result_number=15.2
molecule=COC(=O)c1cc(C(=O)O[C@H]2C[C@H]3CCN(C)[C@H]3[C@@H]3c4cc5c(cc4C(=O)O[C@H]32)OCO5)c(C)nc1C result_number=9.43
molecule="CC(O)CC(=O)O[C@H]1C[C@H]2CCN(C)[C@H]2[C@@H]2c3cc4c(cc3C(=O)O[C@H]21)OCO4 (stereo partly shown)" result_number=12.6

Indicate the recorded inhibition at 100 µM value for this molecule: Cc1nc(C)c(C(=O)OC2CC3CCN(C)C3C3c4cc5c(cc4C(=O)OC23)OCO5)cc1C(=O)OC1CC2CCN(C)C2c2c1oc(=O)c1cc3c(cc21)OCO3 (stereo not shown)
7.69
